# inhibition at 0.1 µM per record follows
# Test Target: rat adrenergic α1A receptor (Rattus norvegicus, UniProt P43140)
# Construct: from tissue; host or cells: Wistar Rat submaxillary glands
# Sequence (P43140 1-466): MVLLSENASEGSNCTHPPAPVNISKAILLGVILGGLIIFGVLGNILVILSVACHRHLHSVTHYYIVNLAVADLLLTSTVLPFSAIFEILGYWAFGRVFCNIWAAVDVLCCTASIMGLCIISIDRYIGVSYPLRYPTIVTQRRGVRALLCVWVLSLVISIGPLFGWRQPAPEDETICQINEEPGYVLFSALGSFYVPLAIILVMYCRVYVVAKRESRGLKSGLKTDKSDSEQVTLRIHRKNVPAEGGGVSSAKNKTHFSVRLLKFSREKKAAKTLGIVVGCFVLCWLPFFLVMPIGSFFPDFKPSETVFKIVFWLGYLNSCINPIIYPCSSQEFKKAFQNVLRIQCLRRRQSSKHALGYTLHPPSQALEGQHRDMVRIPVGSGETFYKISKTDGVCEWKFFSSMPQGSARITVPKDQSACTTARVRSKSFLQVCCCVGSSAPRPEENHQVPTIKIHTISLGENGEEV
# Assay Summary: Adrenergic α1A radioligand binding assay ([3H]Prozosin)
# Condition Context: compound at 0.1 μM; 0.25 nM [3H]Prozosin; Wistar Rat submaxillary glands; read-out: Percent Inhibition of ligand binding, Adrenergic (0.1 μM) a1A
Endpoint Label: inhibition at 0.1 µM (%)

> print(dat)
                                   compound  observed.result
1  COc1ccc([C@@](C)(O)Cn2c3c(c4cc(C)ccc42)CN(C)CC3)cc1 [Compound 1-19]               20
2  CC[C@@](O)(Cn1c2c(c3cc(C)ccc31)CN(C)CC2)c1ccc(F)cc1 [Compound 1-66]               -1
3  CC[C@](O)(Cn1c2c(c3cc(C)ccc31)CN(C)CC2)c1ccc(F)cc1 [Compound 1-60]               -8
